# measurementConditions: rat, in vivo, 60 min
metricName: Heart/Muscle Counts/Gram ratio
The answer should be written as a number, with no unit following it.

Here is how some compounds turned out for Heart/Muscle Counts/Gram ratio.
COCP(C)CCP(C)C (stereo not drawn) [Example 2, Me2 P-(CH2)2 -P(Me) (CH2 OMe)] = 4.17
COCC(COC)(CP(C)C)CP(C)C.COCC(COC)(CP(C)C)CP(C)C.COCC(COC)(CP(C)C)CP(C)C.[99Tc+] [Example 18] = 8.36
COCP(C)CCP(C)COC (stereo not drawn) [Example 1, MeP(CH2 OMe)-(CH2)2 -(Me)P(CH2 OMe)] = 5.46
COC(CC(OC)P(C)C)P(C)C.COC(CC(OC)P(C)C)P(C)C.COC(CC(OC)P(C)C)P(C)C.[99Tc+] (stereo not drawn) [Example 16] = 6.4
COCC(COC)(CP(C)C)CP(C)C.COCC(COC)(CP(C)C)CP(C)C.O=[N][99Tc+][Cl].[Cl-] [Example 19] = 5.6

Read the next record carefully.
Lookup: What Heart/Muscle Counts/Gram ratio value was documented for this compound, COC(CC(OC)P(C)C)P(C)C.COC(CC(OC)P(C)C)P(C)C.O=[N][99Tc+][Cl].[Cl-] (stereo not drawn) [Example 17] ?
Found: 5.51

====

# measurementConditions: rat, in vivo, 2 min
metricName: Heart
A bare number is all that is needed in reply.

Some solved cases for reference:
CCOCCOCCOC(CP(C)C)CP(C)C = 1.08
CP(C)CC1(CP(C)C)COC(C)(C)OC1 = 0.88

Lookup: What value of Heart has been recorded for this entry: `COCCOCC(COC)(CP(C)C)CP(C)C`
Found: 1.87

Lookup: What do you have for COC(CC(OC)P(C)C)P(C)C (stereo not shown) ?
Found: 1.30

Lookup: What about `CP(C)CC1(CP(C)C)CCOCC1` ?
Found: 0.32

====

HEART/LIVER overview
# measurementConditions: rat, in vivo, 60 min
Keep it simple and answer with nothing but the number.

Lookup: I have this molecule here, `CCOCCOCCOC(CP(C)C)CP(C)C` , and I need its recorded HEART/LIVER.
Found: 4.65

Lookup: Quick one: `CP(C)CC1(CP(C)C)COC(C)(C)OC1`
Found: 1.65

Lookup: Please give the result for `CP(C)CC1(CP(C)C)CCOCC1` too.
Found: 0.24

Lookup: Again, but for `COCCOCC(COC)(CP(C)C)CP(C)C`
Found: 17.1

====

# measurementConditions: rat, in vivo, 60 min
Reported Heart/Liver Counts/Gram ratio values follow for various molecules
Form field (numeric): enter value without unit.

Example entries begin here.
COCP(C)CCP(C)C (stereo not drawn) = 7.26
COCC(COC)(CP(C)C)CP(C)C.COCC(COC)(CP(C)C)CP(C)C.COCC(COC)(CP(C)C)CP(C)C.[99Tc+] = 8.42
COC(CC(OC)P(C)C)P(C)C.COC(CC(OC)P(C)C)P(C)C.O=[N][99Tc+][Cl].[Cl-] (stereo not drawn) = 2.47
COCC(COC)(CP(C)C)CP(C)C.COCC(COC)(CP(C)C)CP(C)C.O=[N][99Tc+][Cl].[Cl-] = 17.2
COCP(C)CCP(C)COC (stereo not drawn) = 10.8

Now for the molecule whose Heart/Liver Counts/Gram ratio we want.
Lookup: For the molecule shown here, COC(CC(OC)P(C)C)P(C)C.COC(CC(OC)P(C)C)P(C)C.COC(CC(OC)P(C)C)P(C)C.[99Tc+] (stereo not drawn) , give the reported Heart/Liver Counts/Gram ratio.
Found: 1.64

====

# assayComment: Animal biodistribution of 99mTc complexes in guinea pigs
# Type: in vivo, guinea pig
# measurementConditions: guinea pig, 60 min p.i. in vivo, mean
List of Heart/Blood Counts/Gram ratio values.
Reply with just the number.

Would you please look over these solved cases?
COC(CC(OC)P(C)C)P(C)C.COC(CC(OC)P(C)C)P(C)C.COC(CC(OC)P(C)C)P(C)C.[99Tc+] (stereo not shown) = 7.08
COCC(COC)(CP(C)C)CP(C)C.COCC(COC)(CP(C)C)CP(C)C.COCC(COC)(CP(C)C)CP(C)C.[99Tc+] = 56.1
COCC(COC)(CP(C)C)CP(C)C.COCC(COC)(CP(C)C)CP(C)C.O=[N][99Tc+][Cl].[Cl-] = 49.6

Continue with the next compound.
Lookup: What value of measured Heart/Blood Counts/Gram ratio is listed for COC(CC(OC)P(C)C)P(C)C.COC(CC(OC)P(C)C)P(C)C.O=[N][99Tc+][Cl].[Cl-] (stereo not shown) ?
Found: 13.9

====

# assayComment: Animal biodistribution of 99mTc complexes in guinea pigs
# Type: in vivo, guinea pig
# measurementConditions: guinea pig, 60 min p.i. in vivo, mean
metricName: Muscle

Here is how some molecules turned out for Muscle.
COC(CC(OC)P(C)C)P(C)C.COC(CC(OC)P(C)C)P(C)C.COC(CC(OC)P(C)C)P(C)C.[99Tc+] (stereo not shown) = 20.7 % injected dose/organ
COCC(COC)(CP(C)C)CP(C)C.COCC(COC)(CP(C)C)CP(C)C.COCC(COC)(CP(C)C)CP(C)C.[99Tc+] = 23.7 % injected dose/organ

Lookup: Can you look up the measured Muscle of COC(CC(OC)P(C)C)P(C)C.COC(CC(OC)P(C)C)P(C)C.O=[N][99Tc+][Cl].[Cl-] (stereo not shown) for me?
Found: 1.60 % injected dose/organ

Lookup: Try `COCC(COC)(CP(C)C)CP(C)C.COCC(COC)(CP(C)C)CP(C)C.O=[N][99Tc+][Cl].[Cl-]` next.
Found: 30.6 % injected dose/organ

====

# assayComment: Animal biodistribution of 99mTc complexes in guinea pigs
# Assay type: in vivo, guinea pig
# measurementConditions: guinea pig, 60 min p.i. in vivo, mean
metricName: Heart/Muscle Counts/Gram ratio
// response body must contain only the number

COC(CC(OC)P(C)C)P(C)C.COC(CC(OC)P(C)C)P(C)C.COC(CC(OC)P(C)C)P(C)C.[99Tc+] (stereo not shown) = 3.98
COCC(COC)(CP(C)C)CP(C)C.COCC(COC)(CP(C)C)CP(C)C.O=[N][99Tc+][Cl].[Cl-] = 4.77
COCC(COC)(CP(C)C)CP(C)C.COCC(COC)(CP(C)C)CP(C)C.COCC(COC)(CP(C)C)CP(C)C.[99Tc+] = 6.14

Lookup: Would you mind telling me what Heart/Muscle Counts/Gram ratio value was observed for COC(CC(OC)P(C)C)P(C)C.COC(CC(OC)P(C)C)P(C)C.O=[N][99Tc+][Cl].[Cl-] (stereo not shown) ?
Found: 6.81

====

The entries below are paired with their reported Heart/Blood Counts/Gram ratio.
# measurementConditions: rat, in vivo, 2 min
Kindly provide the number alone.

Please review the following examples before continuing.
COC(CC(OC)P(C)C)P(C)C.COC(CC(OC)P(C)C)P(C)C.COC(CC(OC)P(C)C)P(C)C.[99Tc+] (centres unmarked) [Example 16] = 2.78
COCP(C)CCP(C)C (centres unmarked) [Example 2, Me2 P-(CH2)2 -P(Me) (CH2 OMe)] = 9.05
COCC(COC)(CP(C)C)CP(C)C.COCC(COC)(CP(C)C)CP(C)C.COCC(COC)(CP(C)C)CP(C)C.[99Tc+] [Example 18] = 10.4
COCP(C)CCP(C)COC (centres unmarked) [Example 1, MeP(CH2 OMe)-(CH2)2 -(Me)P(CH2 OMe)] = 4.19

// below: Heart/Blood Counts/Gram ratio requested for another molecule
Lookup: Value lookup for Heart/Blood Counts/Gram ratio; key = COCC(COC)(CP(C)C)CP(C)C.COCC(COC)(CP(C)C)CP(C)C.O=[N][99Tc+][Cl].[Cl-] [Example 19]
Found: 10.9

====

Catalogue of HEART/BLOOD values
# measurementConditions: rat, in vivo, 2 min
I'd appreciate a reply containing only the number, no unit.

Examples from the recorded data:
COC(CC(OC)P(C)C)P(C)C (centres unmarked) = 2.78
COCCOCC(COC)(CP(C)C)CP(C)C = 14.0
CCOCCOCCOC(CP(C)C)CP(C)C = 7.83
CP(C)CC1(CP(C)C)CCOCC1 = 1.13

# next molecule below
Lookup: HEART/BLOOD for `CP(C)CC1(CP(C)C)COC(C)(C)OC1` ?
Found: 4.07

====

# assayComment: Animal biodistribution of 99mTc complexes in guinea pigs;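 further: Heart, liver and kidney plus urine values are percent of the injected material, background-corrected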
# Format: in vivo, guinea pig
# measurementConditions: guinea pig, 60 min p.i. in vivo, mean
metricName: Lung (% injected dose/organ)
Dear colleague, please return just the value in % injected dose/organ, with no unit written.

Example results:
COC(CC(OC)P(C)C)P(C)C.COC(CC(OC)P(C)C)P(C)C.O=[N][99Tc+][Cl].[Cl-] (stereo not shown) [Example 17] = 0.55
COC(CC(OC)P(C)C)P(C)C.COC(CC(OC)P(C)C)P(C)C.COC(CC(OC)P(C)C)P(C)C.[99Tc+] (stereo not shown) [Example 16] = 1.01
COCC(COC)(CP(C)C)CP(C)C.COCC(COC)(CP(C)C)CP(C)C.O=[N][99Tc+][Cl].[Cl-] [Example 19] = 0.52

Lookup: Item under review: COCC(COC)(CP(C)C)CP(C)C.COCC(COC)(CP(C)C)CP(C)C.COCC(COC)(CP(C)C)CP(C)C.[99Tc+] [Example 18] . Reported Lung?
Found: 0.56
